Tested on: triple negative breast cancer cells
Assay: Cell growth inhibition, triple negative breast cancer cells stated together
Format: cell-based
Conditions: range over triple negative breast cancer cells; read-out: effective growth inhibition concentrations (EC50)
endpointLabel: EC50

>>> recordedresult("Cc1[nH]c2ccccc2c1C1=C(c2c(C)[nH]c3ccccc23)C(=O)N(CCCCCCC(=O)NO)C1=O [SP-1-303]")
"1200 to 2500 nM"
